# tgt: T1, recombinant human DLL4 (human, UniProt Q9NR61 25-522)
# T1 construct: also called rhDLL4; hDLL4
# measurement-protocol: SPR Biacore T100, hDLL4 on chip, VHH/Fab injected
What kon was measured for each of the following?
Number in M⁻¹ s⁻¹, nothing else.

The binder DLLBII96C03 (VHH, also called 96C3) VHH: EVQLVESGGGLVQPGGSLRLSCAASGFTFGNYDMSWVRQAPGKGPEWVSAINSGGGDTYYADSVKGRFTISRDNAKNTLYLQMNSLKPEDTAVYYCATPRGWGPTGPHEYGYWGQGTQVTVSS showed kon equal to 160000

The recorded kon for entry DLLBII56A09 (VHH, also called 56A9; DLLBII56A9) VHH: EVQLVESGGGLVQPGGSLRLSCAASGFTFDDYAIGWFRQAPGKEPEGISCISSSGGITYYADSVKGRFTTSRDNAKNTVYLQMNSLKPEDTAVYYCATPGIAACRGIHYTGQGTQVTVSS equals 170000

Record summary for DLLBII62C11 (VHH) VHH: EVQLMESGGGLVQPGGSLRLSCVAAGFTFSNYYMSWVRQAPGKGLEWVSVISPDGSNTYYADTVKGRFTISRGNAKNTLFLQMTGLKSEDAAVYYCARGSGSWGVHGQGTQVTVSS : reported kon = 1.2e+06

The reported value for DLLBII56C04 (VHH) VHH: EVQLVESGGGLVQPGGSLRLSCTASGFTFDVYAIGWFRQAPGKEPEGISCISSSGSITYYADSVKGRFTTSRDSAKNTVYLQMNSLKPEDTAVYYCATPGIAACRGIHYWGQGTQVTVSS in terms of kon is 110000

Looking up DLLBII101G08 (VHH, also called 101G8; DLLBII101G8) VHH: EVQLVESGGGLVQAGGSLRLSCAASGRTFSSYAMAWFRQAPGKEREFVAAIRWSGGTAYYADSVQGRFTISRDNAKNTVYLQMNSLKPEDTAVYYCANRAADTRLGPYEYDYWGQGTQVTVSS , I found its kon recorded as 43000

For DLLBII115A05 (VHH, also called 115A5; DLLBII115A5) VHH: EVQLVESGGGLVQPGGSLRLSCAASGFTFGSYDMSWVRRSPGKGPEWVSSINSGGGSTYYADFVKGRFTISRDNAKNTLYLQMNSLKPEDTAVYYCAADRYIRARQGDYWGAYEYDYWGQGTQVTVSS the binder record lists kon as 150000

response.value for DLLBII56H08 (VHH) VHH: EVQLVESGGGLVQPGGSLRLSCAASGFTFDDYAIGWFRQAPGKEPEEISCISSSGGITYYADSVKGRFTISRDNAKNTVYLQMNSLKPEDTAVYYCATPGIAACRGIHYTGQGTQVTVSS (field: kon) = 120000
